# STUDY SYSTEM: T1, CD47 protein (Acrobiosystems, cat#CD7-HA2E9) (UniProt Q08722 19-139)
# T1 construct: Bought recombinant protein, used as immunogen and as ELISA coating (100 ng/well); also called CD47 peptide; CD47 antigen
# T1 sequence (Q08722 19-139 limits assumed): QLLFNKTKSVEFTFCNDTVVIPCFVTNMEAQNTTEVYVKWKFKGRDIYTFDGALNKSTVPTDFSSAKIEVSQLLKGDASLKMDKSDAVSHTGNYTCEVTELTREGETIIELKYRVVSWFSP
# ASSAY NOTES: ELISA, CD47 protein coated 100 ng/well, 3 ul hybridoma culture solution, anti-mIgG-HRP
QUANTITY KIND: OD450 measurements (OD450)
Form entry: value (OD450) — number only.

Output OD450 measurements of 5H4 antibody (antibody, V domains shown, Hybridoma monoclonal antibody detected with anti-mouse IgG) VH: QVQLQQPGAELVKPGTSVKMSCKASGYTFTNYWMHWVKQRPGQVLEWIGVIDPSDSYTSYNQKFKGKATLTVDTSSTTAYMQLSSLTSEDSAVYYCTRGGKRAMDYWGQGTSVTVSS VL: DVLMTQTPLSLPVSLGDQASISCRSSQSLVHSNGNTYLHWYLQKPGQSPKLLIYKVSNRFSGVPDRFSGSGSGTDFTLKISRVEAEDLGVYFCSQSTHVPFTFGSGTKLEIK
1.91

Output OD450 measurements of 4E12 antibody (antibody, V domains shown, Hybridoma monoclonal antibody detected with anti-mouse IgG) VH: QIQFAQSGPELKKSGETVKISCRASGYTFTNYGMNWVKQAPGKGLKWMGWINTYTGEPTYADDFKGRFAFSLETSASTAYLQINNLKNEDMATYFCARGGGRGAMDYWGQGTTLTVSS VL: DVLMTQTPLSLPVSLGDQASISCRSSQSIVHSNGNTYLDWYLQKPGQSPKLLIYKVSKRFSGVPDRFSGSGSGTDFTLKISRVEAEDLGVYYCFQGSHVPFTFGSGTKLEIK
2.15

Output OD450 measurements of 3H3 antibody (antibody, V domains shown, Hybridoma monoclonal antibody detected with anti-mouse IgG) VH: EVQLQQPGPELVRPGASVKMSCKASGYTFTNYWMHWVKQRPGQGLEWIGMIDPSNSETRLNQKFKDKATLNVDKSSNTAYMQLSSLTSEDSAVYSCARGGFAFDSWGQGTTLTVSS VL: DVLMTQTPLSLPVSLGDQASISCRSSQSLVHNNGNTYLHWYLQKPGQSPKLLIYKVSNRFSGVPDRFRGSGSGTDFTLKISRVEAEDLGVYFCSQSTHVPWTFGGGTKLEIK
1.97
